System: Setaria viridis
method_notes: Pot-culture stem and leaf treatment, fresh weight inhibition (Gowing method)
Assay type: in vivo
measurement_conditions: dosage 750 g/hm^2
Experimental: Echinochloa crusgalli, Setaria viridis, Chenopodium album, Amaranthus retrollexus were collected from corn fields in Qingdao of Shandong Province. Sonchus brachyotus were collected from corn fields in Shenyang of Liaoning Province. Rhizoma Cyperi, Convolvulus arvensis were collected from corn fields in Shangqiu of Henan Province. […] An optimum ratio of the two active ingredients was determined by the actual control effect, characteristics of herbicides, and balance of a corresponding formula. […]
Here the recorded actual fresh weight inhibition rate is given for each entry.
Output spec: scalar in %, unitless text.

Illustrative cases are given below, each with its answer.
> print(dat)
             structure.string  measured
1  CCNc1nc(Cl)nc(NC(C)(C)C)n1      30.6
2     CCNc1nc(Cl)nc(NC(C)C)n1      31.4

What does the record list as actual fresh weight inhibition rate for CCc1cccc(C)c1N(C(=O)CCl)[C@@H](C)COC ?
3.9

# iterate: CCCCOCN(C(=O)CCl)c1c(CC)cccc1CC
3.8

This collection of values is drawn from patent US10729133B2.
